quantity.measured: melting point

As a guide, the following entries are already answered.
CCCNc1ncnc2oc(-c3c(C)noc3N)nc12: 220 to 221 °C (dec.)
Cc1noc(N)c1-c1nc2c(NCCCO)ncnc2o1: 225 to 226 °C (dec.)
CCCCNc1ncnc2oc(-c3c(C)noc3N)nc12: 239 to 240 °C (dec.)
Cc1noc(N)c1-c1nc2c(NCCO)ncnc2o1: 213 to 214 °C (dec.)

// returns reported melting point for input `CCNc1ncnc2oc(-c3c(C)noc3N)nc12`
253 to 254 °C (dec.)

---

Please provide measured CC50 for the entries that follow.
Tested on: lung adenocarcinoma (A549)
Assay: MTT viability assay, A549
Format: cell-based, human
Settings: Homo sapiens; A549, MTT, tested 1–500 µM
Procedure: When the confluence was greater than 70%, adherent cell lines were detached from the bottle surface with a TrypLE solution and then used in assays or reduced. […] The cells were counted using a Bürker chamber and resuspended in 96-well plates to a cell density of 10,000 cells per well for MTT assay. […] All of the synthesized derivatives were evaluated via the MTT assay. […] Absorbance was measured at 570 nm. […]
Answers are plain numbers, in µM.

Cc1noc(N)c1-c1nc2c(NCCN(C)C)ncnc2o1 [Compound 3f]: 148
O=c1[nH]cc(F)c(=O)[nH]1 [Compound 5-FU, 5-fluorouracil, reference compound]: 269
CCCCNc1ncnc2oc(-c3c(C)noc3N)nc12 [Compound 3d]: 179
CNc1ncnc2oc(-c3c(C)noc3N)nc12 [Compound 3a]: 245

Hi, could you look up CC50 for each item in my list?
1. Cc1noc(N)c1-c1nc2c(NCCCN(C)C)ncnc2o1 [Compound 3g]
2. CCCCCNc1ncnc2oc(-c3c(C)noc3N)nc12 [Compound 3e]

[138, 125]

---

System: HT29 primary colon adenocarcinoma cells
Test: Detection of apoptosis (Annexin V FITC / propidium iodide)
Format: cell-based, human
Design: unit not given here
Conditions: 1 μM, 24 h
Please provide measured necrosis mean for the entries that follow.
Give bare numbers.

As a guide, the following entries are already answered.
Cc1noc(N)c1-c1nc2c(NCCN3CCOCC3)ncnc2o1: 8.01
O=c1[nH]cc(F)c(=O)[nH]1 [Compound 5-FU, 5-fluorouracil, reference compound]: 10.48
CNc1ncnc2oc(-c3c(C)noc3N)nc12: 4.43
CCCCCNc1ncnc2oc(-c3c(C)noc3N)nc12: 4.53
Cc1noc(N)c1-c1nc2c(NCCN(C)C)ncnc2o1: 0.16

Hi, could you look up necrosis mean for each item in my list?
1. N.N.[Cl][Pt][Cl] [Cisplatin, reference compound]
2. Cc1noc(N)c1-c1nc2c(NCCCN(C)C)ncnc2o1

7.81
11.28

---

Tested on: breast adenocarcinoma (MCF7)
Experiment: MTT viability assay, MCF7
Type: cell-based, human
Conditions: CC50 NHDF / CC50 MCF7
quantity.measured: SI (selectivity index)
Numbers only.

As a guide, the following entries are already answered.
O=c1[nH]cc(F)c(=O)[nH]1 [Compound 5-FU, 5-fluorouracil, reference compound]: 0.094
CCCCCNc1ncnc2oc(-c3c(C)noc3N)nc12: 0.804
CCCNc1ncnc2oc(-c3c(C)noc3N)nc12: 0.862
Cc1noc(N)c1-c1nc2c(NCCN(C)C)ncnc2o1: 0.881

Okay, now this compound:
What reported SI (selectivity index) corresponds to `CCCCNc1ncnc2oc(-c3c(C)noc3N)nc12` on breast adenocarcinoma (MCF7)?
0.944

---

Please provide measured SI (selectivity index) for the entries that follow.
Test system: lung adenocarcinoma (A549)
Test: MTT viability assay, A549
Assay type: cell-based, human
Details: CC50 NHDF / CC50 A549
Protocol: When the confluence was greater than 70%, adherent cell lines were detached from the bottle surface with a TrypLE solution and then used in assays or reduced. […] The cells were counted using a Bürker chamber and resuspended in 96-well plates to a cell density of 10,000 cells per well for MTT assay. […] All of the synthesized derivatives were evaluated via the MTT assay. […] Absorbance was measured at 570 nm. […]
Answers are plain numbers.

Cc1noc(N)c1-c1nc2c(NCCN(C)C)ncnc2o1 [Compound 3f]: 1.161
O=c1[nH]cc(F)c(=O)[nH]1 [Compound 5-FU, 5-fluorouracil, reference compound]: 0.076
CCCCNc1ncnc2oc(-c3c(C)noc3N)nc12 [Compound 3d]: 0.705
CCCCCNc1ncnc2oc(-c3c(C)noc3N)nc12 [Compound 3e]: 0.999

Okay, now this compound:
// returns reported SI (selectivity index) for input Cc1noc(N)c1-c1nc2c(NCCCN(C)C)ncnc2o1 [Compound 3g]
1.123

---

Assay: MTT viability assay, NHDF
Assay type: cell-based, human
Conditions: human, normal human dermal fibroblasts (NHDF), tested 1–500 µM
quantity.measured: CC50 (µM)
Give bare numbers, in µM.

O=c1[nH]cc(F)c(=O)[nH]1 [Compound 5-FU, 5-fluorouracil, reference compound]: 20.4
Cc1noc(N)c1-c1nc2c(NCCCN(C)C)ncnc2o1 [Compound 3g]: 156
CCCCCNc1ncnc2oc(-c3c(C)noc3N)nc12 [Compound 3e]: 125
Cc1noc(N)c1-c1nc2c(NCCN(C)C)ncnc2o1 [Compound 3f]: 172
CCCNc1ncnc2oc(-c3c(C)noc3N)nc12 [Compound 3c]: 172

Okay, now this molecule:
// returns reported CC50 for input CCCCNc1ncnc2oc(-c3c(C)noc3N)nc12 [Compound 3d]
126

---

Tested on: HT29 primary colon adenocarcinoma cells
Assay: Detection of apoptosis (Annexin V FITC / propidium iodide)
Assay type: cell-based, human
Design: unit not given here
Conditions: 10 μM, 24 h
Please assign FALSE whenever late apoptosis mean is at or above 20, and TRUE whenever it is below.

Cc1noc(N)c1-c1nc2c(NCCCN(C)C)ncnc2o1: FALSE
Cc1noc(N)c1-c1nc2c(NCCN(C)C)ncnc2o1: TRUE
O=c1[nH]cc(F)c(=O)[nH]1 [Compound 5-FU, 5-fluorouracil, reference compound]: TRUE

Regarding `Cc1noc(N)c1-c1nc2c(NCCN3CCOCC3)ncnc2o1` , kindly confirm whether its late apoptosis mean is beneath 20.
TRUE

And for `CCCCCNc1ncnc2oc(-c3c(C)noc3N)nc12` ?
FALSE

And for `CNc1ncnc2oc(-c3c(C)noc3N)nc12` ?
TRUE

And for N.N.[Cl][Pt][Cl] [Cisplatin, reference compound] ?
TRUE

---

Tested on: breast adenocarcinoma (MCF7)
Assay: MTT viability assay, MCF7
Assay type: cell-based, human
Settings: CC50 NHDF / CC50 MCF7
quantity.measured: SI (selectivity index)

As a guide, the following entries are already answered.
Cc1noc(N)c1-c1nc2c(NCCCO)ncnc2o1: >>1
CCNc1ncnc2oc(-c3c(C)noc3N)nc12: >>1

Okay, now this molecule:
// returns reported SI (selectivity index) for input `Cc1noc(N)c1-c1nc2c(NCCN3CCOCC3)ncnc2o1`
>>1
